system: biotinyl-Met-oxazolone; assay: self-aminoacylation, catalytic enhancement (BMO) (fold over background); higher = more active; k-Seq, kA / k0A0; sequences stand for … in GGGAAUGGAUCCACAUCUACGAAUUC…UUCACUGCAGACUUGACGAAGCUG
Fewer inactive variants are shown than the library holds.
metric_name: self-aminoacylation
I only need the number, thanks.

> print(dat)
                              item.sequence          metric.name  value.measured
1  AAGUUUGCUAAAAGUCGCAAU [Fam3.1 aminoacylation ribozyme variant]  self-aminoacylation            1.37
2  UUUACCCUGGUCAUCCAGUGA [Fam2.1 aminoacylation ribozyme variant]  self-aminoacylation            4.91
3  AAGUUUGCUAAUAGUCGCGGG [Fam3.1 aminoacylation ribozyme variant]  self-aminoacylation            4.13

Data request: self-aminoacylation for AUUACCCUGGUCUUCGAAUGA [Fam2.1 aminoacylation ribozyme variant] ?
Data returned: 0.746

Data request: self-aminoacylation for AUUUACCUAGGUCAUAGGGUG [Fam2.2 aminoacylation ribozyme variant] ?
Data returned: 1.58

----------
tested on: biotinyl-Leu-oxazolone; assay: self-aminoacylation, catalytic enhancement (BLO) (fold over background); higher = more active; k-Seq, kA / k0A0; sequences stand for … in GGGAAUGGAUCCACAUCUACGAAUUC…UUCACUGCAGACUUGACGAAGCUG
Fewer inactive variants are shown than the library holds.
metric_name: self-aminoacylation
I only need the number, thanks.

Data request: self-aminoacylation for AGUACCCUGGUCAACGAGUGA [Fam2.1 aminoacylation ribozyme variant] ?
Data returned: 4.71

Data request: self-aminoacylation for AUUCAGCUAGGUCAUCGGGUG [Fam2.2 aminoacylation ribozyme variant] ?
Data returned: 5.83

----------
In this section, each of the sequences is paired with its reported self-aminoacylation.
system: biotinyl-Val-oxazolone; experiment: self-aminoacylation, catalytic enhancement (BVO) (fold over background); higher = more active; k-Seq, kA / k0A0; sequences stand for … in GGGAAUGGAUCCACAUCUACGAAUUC…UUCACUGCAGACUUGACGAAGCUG
Fewer inactive variants are shown than the library holds.
I only need the number, thanks.

Study these solved cases before continuing.
> print(dat)
                              item.sequence  value.measured
1  CCACCCUUCAAGCAAGCGGUC [Fam1B.1 aminoacylation ribozyme variant]             1.4
2  CUACUACAAACAAUCGGUCUG [Fam1A.1 aminoacylation ribozyme variant]           0.743
3  AUUACCUUGGUCAUUGAGUGA [Fam2.1 aminoacylation ribozyme variant]            4.11

Now consider a different sequence.
Data request: self-aminoacylation for AAGUUUGCUGAUAAUCGCAAG [Fam3.1 aminoacylation ribozyme variant] ?
Data returned: 0.754

----------
In this section, each of the sequences is paired with its reported self-aminoacylation.
test system: biotinyl-Ile-oxazolone; test: self-aminoacylation, catalytic enhancement (BIO) (fold over background); higher = more active; k-Seq, kA / k0A0; sequences stand for … in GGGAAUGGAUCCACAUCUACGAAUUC…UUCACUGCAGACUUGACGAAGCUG
This sample holds only a part of the variants without activity.
I only need the number, thanks.

Study these solved cases before continuing.
> print(dat)
                              item.sequence          metric.name  value.measured
1  AUUCACCUACGUGAUCGGGUG [Fam2.2 aminoacylation ribozyme variant]  self-aminoacylation            2.19
2  AUUCACCGAGGCCAUCGGGUG [Fam2.2 aminoacylation ribozyme variant]  self-aminoacylation            3.16
3  AAGUUUUCUAAUAGUCACAAG [Fam3.1 aminoacylation ribozyme variant]  self-aminoacylation            1.64

Data request: self-aminoacylation for UUUCACCUAGGUUAUCGGGUG [Fam2.2 aminoacylation ribozyme variant] ?
Data returned: 2.92

Data request: self-aminoacylation for ACUCACCUAGAUCAUCGGGUG [Fam2.2 aminoacylation ribozyme variant] ?
Data returned: 2.9
